Consider the following IC50 data for Cytochrome P450 2C9 (Homo sapiens, UniProt P11712), collected from several reports.

[[record]]
compoundstructurestring = "O=c1[nH]ccc2cc(Nc3n[nH]c4cccnc34)ccc12"
quantitykind = "IC50"
result = "> 30 µM"

[[record]]
compoundstructurestring = "CC(C)OC(=O)[C@@H](Cc1ncccn1)OC(=O)Nc1c2c(cc3c1CCC3)CCC2"
quantitykind = "IC50"
result = "> 30 µM"

[[record]]
compoundstructurestring = "NS(=O)(=O)c1nccc(-c2ccc(CO)cc2)c1-c1nnn[nH]1"
quantitykind = "IC50"
result = "> 30 µM"


Reported IC50 (Cytochrome P450 2C9 (Homo sapiens, UniProt P11712)) for entry `Nc1ncccc1-c1nc2cccnc2n1-c1ccc(CC(=O)Nc2ccccc2)cc1` is > 10 µM

Reported IC50 (Cytochrome P450 2C9 (Homo sapiens, UniProt P11712)) for entry `Nc1ccccc1NC(=O)c1ccc(C2CCN(Cc3ccc(C(=O)NC4CC4)cc3)CC2)cc1` is > 10 µM

Reported IC50 (Cytochrome P450 2C9 (Homo sapiens, UniProt P11712)) for entry `COc1cc(OC)c(Cl)c(NC(=O)N(C)c2cc(Nc3ccc(CCCN(C)C)cc3)ncn2)c1Cl` is > 10 µM

Reported IC50 (Cytochrome P450 2C9 (Homo sapiens, UniProt P11712)) for entry `Cc1cc(-c2ccc(C(F)(F)F)cn2)[nH]c1C(=O)N[C@@H](CN)c1ncc(CO)s1` is > 100 µM

Reported IC50 (Cytochrome P450 2C9 (Homo sapiens, UniProt P11712)) for entry `O=C(CCc1noc2c1CCc1cc(O)ccc1-2)NC1=C(C(=O)O)CCC1` is 47 µM

Reported IC50 (Cytochrome P450 2C9 (Homo sapiens, UniProt P11712)) for entry `O=C(Nc1cccnc1)c1cc(C(=O)c2c(F)cccc2Br)c[nH]1` is > 5 µM

Reported IC50 (Cytochrome P450 2C9 (Homo sapiens, UniProt P11712)) for entry `CCn1c([C@@H](C)NS(=O)(=O)c2ccc(C#N)nc2)nc2cnc(C(F)(F)F)cc21` is > 20 µM

Reported IC50 (Cytochrome P450 2C9 (Homo sapiens, UniProt P11712)) for entry `CCOC(=O)N[C@@H]1CC[C@@H]2[C@@H](C1)C[C@H]1C(=O)O[C@H](C)[C@H]1[C@H]2/C=C/c1ccc(-c2ccccn2)cn1` is > 30 µM

---

Consider the following IC50 data for Cytochrome P450 2C9 (Homo sapiens, UniProt P11712), collected from several reports.

[[record]]
compoundstructurestring = "COc1cc(N2CCN(C)CC2)ccc1-c1nc2c(N[C@H]3[C@@H](C(N)=O)[C@@H]4C=C[C@H]3C4)c(Cl)cnc2[nH]1"
result = "> 30 µM"

[[record]]
compoundstructurestring = "Nc1nc2ccc(C(=O)N(CCO)Cc3ccccc3)cc2s1"
result = "> 25 µM"


Reported IC50 (Cytochrome P450 2C9 (Homo sapiens, UniProt P11712)) for entry `O=C(/C=C/c1ccc2c(c1)OCO2)c1cccnc1` is > 20 µM

Reported IC50 (Cytochrome P450 2C9 (Homo sapiens, UniProt P11712)) for entry `C[C@@H]1CCCN1CCCOc1ccc2c(c1)cc1n2CCNC1=O` is > 50 µM

Reported IC50 (Cytochrome P450 2C9 (Homo sapiens, UniProt P11712)) for entry `CN[C@H]1CC[C@@H](c2ccc(Cl)c(Cl)c2)c2ccccc21` is > 50 µM
